- system under test: T1, MUC1-ECD (human, UniProt P15941 1098-1155)
- T1 construct: also called Ag MUC1-ECD; Antigen MUC1-ECD
- T1 sequence: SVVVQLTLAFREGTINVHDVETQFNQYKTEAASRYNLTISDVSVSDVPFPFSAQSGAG
- experiment description: SPR Biacore T200, antibody on chip, MUC1-ECD analyte, 1:1 fit
parameter: pKd
Entry type: numeric. Quantity: pKd, the -log10 of concentration in molar units.

Prompt line: So what does the record say about pKd for VH1 + VL3 (antibody, V domains shown) VH: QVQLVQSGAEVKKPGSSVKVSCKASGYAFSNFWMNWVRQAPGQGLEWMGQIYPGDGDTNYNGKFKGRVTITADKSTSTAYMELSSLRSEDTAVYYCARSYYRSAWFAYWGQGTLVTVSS VL: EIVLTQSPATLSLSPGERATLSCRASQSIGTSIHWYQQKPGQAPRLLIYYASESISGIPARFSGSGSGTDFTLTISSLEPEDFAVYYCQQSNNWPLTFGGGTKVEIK ?
Response line: 8.28
